Molecular target: PARP9 MD1 (Homo sapiens)
Construct: macrodomain 1 only, CFP fusion, produced as described earlier
Assay: FRET displacement of MARylated YFP-GAP
pIC50: −log10 of the molar value.
quantity: pIC50

>  <smilesString>
O=C(Nc1cccc2c(=O)cc(-c3nn[nH]n3)oc12)c1ccc(OCCCCc2ccccc2)cc1

>  <quantity>
pIC50

>  <experimentalValue>
~4.00

$$$$

* * *

Target: PARP15 MD1 (Homo sapiens)
Construct: macrodomain 1 only, CFP fusion, produced as described earlier
Sequence (Q460N3 78-267 limits assumed): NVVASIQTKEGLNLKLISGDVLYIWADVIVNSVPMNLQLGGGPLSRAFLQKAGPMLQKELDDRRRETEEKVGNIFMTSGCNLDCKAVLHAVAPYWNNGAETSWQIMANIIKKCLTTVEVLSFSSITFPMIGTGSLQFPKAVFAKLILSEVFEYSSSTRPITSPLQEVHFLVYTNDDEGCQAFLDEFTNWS
Experiment: FRET displacement of MARylated YFP-GAP

>  <compound>
O=C(Nc1cccc2c(=O)cc(-c3nn[nH]n3)oc12)c1ccc(OCCCCc2ccccc2)cc1 [pranlukast]

>  <IC50>
~100 µM

$$$$

* * *

Biological target: PARP14 MD1 (Homo sapiens, UniProt Q460N5)
Construct: macrodomain 1 only, CFP fusion, produced as described earlier
Sequence (Q460N5 791-978 limits assumed): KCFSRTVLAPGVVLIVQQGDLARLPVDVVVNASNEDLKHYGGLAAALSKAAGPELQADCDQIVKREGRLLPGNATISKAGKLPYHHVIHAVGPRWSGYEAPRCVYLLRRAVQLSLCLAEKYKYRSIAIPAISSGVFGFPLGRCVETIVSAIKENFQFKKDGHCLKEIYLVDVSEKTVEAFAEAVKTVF
Assay: FRET displacement of MARylated YFP-GAP

>  <smilesString>
O=C(Nc1cccc2c(=O)cc(-c3nn[nH]n3)oc12)c1ccc(OCCCCc2ccccc2)cc1

>  <IC50>
~100 µM

$$$$

* * *

Target: MtbDarG MD; CFP-MtbDarG MD (Mycobacterium tuberculosis, UniProt O53605)
Sequence (O53605 1-155): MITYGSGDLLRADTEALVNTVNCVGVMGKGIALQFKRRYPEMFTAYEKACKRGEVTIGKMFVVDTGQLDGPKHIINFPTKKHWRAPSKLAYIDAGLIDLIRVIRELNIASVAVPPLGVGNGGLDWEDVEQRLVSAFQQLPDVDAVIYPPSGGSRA
Assay: FRET displacement of PARylated YFP-GAP

>  <smilesString>
O=C(O)C(=O)c1cn(Cc2ccccc2)c2ccc(-c3ccc(OC(F)(F)F)cc3)cc12

>  <IC50>
5.7 µM

$$$$
>  <smilesString>
Cc1cc(SCc2sc(-c3ccc(C(F)(F)F)cc3)nc2C)ccc1OCC(=O)O

>  <IC50>
56.5 µM

$$$$
>  <smilesString>
O=C(Nc1cccc2c(=O)cc(-c3nn[nH]n3)oc12)c1ccc(OCCCCc2ccccc2)cc1

>  <IC50>
4 µM

$$$$
>  <smilesString>
COc1ccc(-c2ccccc2)cc1NS(=O)(=O)c1cc(Cl)cc(Cl)c1O

>  <IC50>
18.7 µM

$$$$
